All figures here come from ChEMBL document CHEMBL2413054.

- system under test: Sodium- and chloride-dependent betaine transporter (Homo sapiens)
- Sequence (P48065 whole entry): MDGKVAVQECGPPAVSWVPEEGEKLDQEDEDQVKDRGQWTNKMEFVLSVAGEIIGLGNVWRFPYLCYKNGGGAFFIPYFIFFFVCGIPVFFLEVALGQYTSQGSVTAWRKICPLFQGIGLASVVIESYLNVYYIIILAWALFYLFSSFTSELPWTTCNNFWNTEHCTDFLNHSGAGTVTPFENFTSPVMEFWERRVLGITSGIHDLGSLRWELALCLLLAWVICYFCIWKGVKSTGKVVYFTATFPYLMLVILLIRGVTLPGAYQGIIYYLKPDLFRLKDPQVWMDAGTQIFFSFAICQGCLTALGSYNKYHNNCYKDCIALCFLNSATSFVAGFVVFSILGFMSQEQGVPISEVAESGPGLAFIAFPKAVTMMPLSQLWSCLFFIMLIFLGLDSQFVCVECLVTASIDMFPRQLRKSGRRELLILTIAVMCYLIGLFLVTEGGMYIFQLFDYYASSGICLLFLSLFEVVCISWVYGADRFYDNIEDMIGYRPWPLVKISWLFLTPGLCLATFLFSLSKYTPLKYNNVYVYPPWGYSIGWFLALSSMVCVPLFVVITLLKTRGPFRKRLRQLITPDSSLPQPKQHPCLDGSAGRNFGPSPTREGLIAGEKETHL
- assay details: Inhibition of human BGT1 transfected in CHO cells assessed as [3H]GABA uptake after 20 mins by liquid scintillation counting analysis
pIC50: −log10 of the molar value.
measure name: pIC50

structure_as_smiles=COc1ccc(C(OCCN2CCC[C@H](C(=O)O)C2)(c2ccc(OC)cc2)c2ccc(OC)cc2)cc1 observed=4.14
structure_as_smiles=Cl.N[C@@H]1C[C@H]1CC(=O)O observed=5.26
structure_as_smiles=COc1ccccc1C1(O)CCN(CCCn2c3ccccc3c3ccccc32)CC1 observed=5.29

###

- assay details: Binding affinity to mouse brain GABAA receptor by Scatchard analysis
measure name: Kd

structure_as_smiles=NCc1cc(O)no1 measure_name=Kd observed="0.0152 µM"

###

Examples of compounds with documented inhibition follow.
- system under test: Sodium- and chloride-dependent GABA transporter 3 (Homo sapiens) (UniProt P48066)
- Sequence (whole entry): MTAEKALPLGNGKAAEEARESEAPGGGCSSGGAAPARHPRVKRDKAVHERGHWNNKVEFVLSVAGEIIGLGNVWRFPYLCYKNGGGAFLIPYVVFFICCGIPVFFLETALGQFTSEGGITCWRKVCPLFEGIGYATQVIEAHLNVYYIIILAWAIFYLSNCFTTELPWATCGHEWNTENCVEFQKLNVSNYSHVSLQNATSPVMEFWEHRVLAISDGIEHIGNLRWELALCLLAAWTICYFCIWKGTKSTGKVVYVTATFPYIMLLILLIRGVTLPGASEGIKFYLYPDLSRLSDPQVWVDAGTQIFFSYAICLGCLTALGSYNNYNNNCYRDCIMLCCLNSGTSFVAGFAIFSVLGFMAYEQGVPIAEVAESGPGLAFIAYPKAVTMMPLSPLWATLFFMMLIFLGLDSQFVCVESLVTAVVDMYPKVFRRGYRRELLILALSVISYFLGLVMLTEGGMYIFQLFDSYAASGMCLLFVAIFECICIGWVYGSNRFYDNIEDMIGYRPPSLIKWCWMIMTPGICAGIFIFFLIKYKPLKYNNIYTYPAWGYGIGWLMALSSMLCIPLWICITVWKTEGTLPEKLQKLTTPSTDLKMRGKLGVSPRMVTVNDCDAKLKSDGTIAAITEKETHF
- assay details: Inhibition of human GAT3 transfected in CHO cells assessed as [3H]GABA uptake at 100 uM after 20 mins by liquid scintillation counting analysis
- Assay type: cell-based
measure name: inhibition (%)

structure_as_smiles=NC[C@H]1C[C@H]1C(=O)O system_under_test="Sodium- and chloride-dependent GABA transporter 3 (Homo sapiens) (UniProt P48066)" unit_text=% observed=-4
structure_as_smiles=NC[C@@H]1C[C@@H]1C(=O)O system_under_test="Sodium- and chloride-dependent GABA transporter 3 (Homo sapiens) (UniProt P48066)" unit_text=% observed=54.5
structure_as_smiles=NC[C@H]1C[C@@H]1C(=O)O system_under_test="Sodium- and chloride-dependent GABA transporter 3 (Homo sapiens) (UniProt P48066)" unit_text=% observed=25
structure_as_smiles=Cl.N[C@@H]1C[C@H]1CC(=O)O system_under_test="Sodium- and chloride-dependent GABA transporter 3 (Homo sapiens) (UniProt P48066)" unit_text=% observed=92.6
structure_as_smiles=N[C@H]1C[C@@H]1CC(=O)O system_under_test="Sodium- and chloride-dependent GABA transporter 3 (Homo sapiens) (UniProt P48066)" unit_text=% observed=50.5
structure_as_smiles=N[C@@H]1C[C@@H]1CC(=O)O system_under_test="Sodium- and chloride-dependent GABA transporter 3 (Homo sapiens) (UniProt P48066)" unit_text=% observed=-1.4
